Items are presented alongside their recorded switch fluorescence ratio.
Tested on: ATP;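 further: ATP exposure 15 min at 22 °C before imaging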
Experiment: switch fluorescence ratio, 500 uM ATP over buffer (Cy3 cluster intensity, sum of 5 cycles each) (fold (ratio)); higher = stronger signal-on switching upon ATP binding; sequences stand for … in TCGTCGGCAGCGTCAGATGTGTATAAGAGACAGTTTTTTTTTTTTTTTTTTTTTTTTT…TC
Conditions: aptamer strand: ATP DNA aptamer (quencher-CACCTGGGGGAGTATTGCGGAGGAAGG + anchor), 100 nM annealed; ATP concentration: 500 uM
The response must contain the number and no unit.

See these solved cases before continuing.
TTCGTGTATT
1
CAAAGGCGGA
0.991
CCTCTATATT
1.18
GCGTACGTAG
0.998

Given the sequence TTTGGGTGGG , what is its reported switch fluorescence ratio?
0.985

Given the sequence TAGAGGCAGG , what is its reported switch fluorescence ratio?
0.985

Given the sequence GGCCGTTCAT , what is its reported switch fluorescence ratio?
0.972

Given the sequence GGTTAAGCCG , what is its reported switch fluorescence ratio?
0.996

###

Test system: ATP;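 further: ATP exposure 15 min at 22 °C before imaging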
Experiment: switch fluorescence ratio, 500 uM ATP over buffer (Cy3 cluster intensity, sum of 5 cycles each) (fold (ratio)); higher = stronger signal-on switching upon ATP binding; sequences stand for … in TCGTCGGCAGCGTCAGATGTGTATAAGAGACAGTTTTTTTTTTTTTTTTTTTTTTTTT…TC
Conditions: aptamer strand: ATP DNA aptamer (quencher-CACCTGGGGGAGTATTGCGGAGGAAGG + anchor), 100 nM annealed; ATP concentration: 500 uM
measured.parameter: switch fluorescence ratio

TTTTCCTAAA
1.06
TCGAGGGCAG
1.01
CTGTGTAGCT
1.02
TGGGGAAGGT
0.994
AGGTTGGTAA
0.969
CCGGGGAAGG
1.04

Given the sequence TATATACTGT , what is its reported switch fluorescence ratio?
1.02

Given the sequence AATGGGTGGG , what is its reported switch fluorescence ratio?
1

###

Test system: ATP;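 further: ATP exposure 15 min at 22 °C before imaging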
Assay: switch fluorescence ratio, 500 uM ATP over buffer (Cy3 cluster intensity, sum of 5 cycles each) (fold (ratio)); higher = stronger signal-on switching upon ATP binding; sequences stand for … in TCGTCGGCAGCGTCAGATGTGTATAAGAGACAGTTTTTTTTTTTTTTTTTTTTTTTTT…TC
Conditions: aptamer strand: ATP DNA aptamer (quencher-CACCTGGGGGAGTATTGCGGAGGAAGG + anchor), 100 nM annealed; ATP concentration: 500 uM
Parameter threshold = 1. Response is satisfied when switch fluorescence ratio meets or exceeds it, else not satisfied.

The following sequences have reported results that may help.
TAAGATGTAA
satisfied
TTGACAAGAT
satisfied
TCGTCAAAGA
satisfied

Could you tell me if the measured switch fluorescence ratio of ATTTGAGTGC reaches 1 or more?
not satisfied

Could you tell me if the measured switch fluorescence ratio of CTCGCAGGGG reaches 1 or more?
satisfied

###

System: ATP;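 further: ATP exposure 15 min at 22 °C before imaging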
Experiment: switch fluorescence ratio, 500 uM ATP over buffer (Cy3 cluster intensity, sum of 5 cycles each) (fold (ratio)); higher = stronger signal-on switching upon ATP binding; sequences stand for … in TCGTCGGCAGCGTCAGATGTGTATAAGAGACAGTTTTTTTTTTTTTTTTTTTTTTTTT…TC
Settings: aptamer strand: ATP DNA aptamer (quencher-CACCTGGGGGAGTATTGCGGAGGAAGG + anchor), 100 nM annealed; ATP concentration: 500 uM
Items are presented alongside their recorded switch fluorescence ratio.
The response must contain the number and no unit.

See these solved cases before continuing.
TACAGAATGA
1
CAGGTGGAGA
1.01
TGCAAAAGAG
1.01
AGATAATCGC
0.987

Given the sequence TAATGGAAGG , what is its reported switch fluorescence ratio?
1

Given the sequence GCATTTTCTG , what is its reported switch fluorescence ratio?
1.02

Given the sequence TCGGGGGCTG , what is its reported switch fluorescence ratio?
0.98

Given the sequence TTGTGGCTGT , what is its reported switch fluorescence ratio?
1.01

Given the sequence GGTGAGATTA , what is its reported switch fluorescence ratio?
0.98

Given the sequence AATTGTGGGC , what is its reported switch fluorescence ratio?
0.978

Given the sequence TTATTCTTTC , what is its reported switch fluorescence ratio?
1.01

Given the sequence TGATGGTGCC , what is its reported switch fluorescence ratio?
0.986

Given the sequence GCGATAGGGC , what is its reported switch fluorescence ratio?
1.02

Given the sequence TCGAAGTGTT , what is its reported switch fluorescence ratio?
0.989

###

Items are presented alongside their recorded switch fluorescence ratio.
Test system: ATP;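 further: ATP exposure 15 min at 22 °C before imaging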
Assay: switch fluorescence ratio, 500 uM ATP over buffer (Cy3 cluster intensity, sum of 5 cycles each) (fold (ratio)); higher = stronger signal-on switching upon ATP binding; sequences stand for … in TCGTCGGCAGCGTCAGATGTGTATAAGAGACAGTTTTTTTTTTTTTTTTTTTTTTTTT…TC
Settings: aptamer strand: ATP DNA aptamer (quencher-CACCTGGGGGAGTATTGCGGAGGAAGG + anchor), 100 nM annealed; ATP concentration: 500 uM
The response must contain the number and no unit.

See these solved cases before continuing.
TGGTCTTCTC
1.16
TTTGGATGGC
1.02
AAAGCAGGTA
0.989
TTCCCGTGGG
1
GGAGGAGGTG
1.02
ACCAGATGCG
1.01
AACGGGGTGG
0.976
CAGGCATAGG
1.06

What value of switch fluorescence ratio on ATP does CACCCTGGTG have?
4.51

###

Test system: ATP;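 further: ATP exposure 15 min at 22 °C before imaging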
Assay: switch fluorescence ratio, 500 uM ATP over buffer (Cy3 cluster intensity, sum of 5 cycles each) (fold (ratio)); higher = stronger signal-on switching upon ATP binding; sequences stand for … in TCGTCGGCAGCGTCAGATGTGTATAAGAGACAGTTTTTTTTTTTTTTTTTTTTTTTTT…TC
Details: aptamer strand: ATP DNA aptamer (quencher-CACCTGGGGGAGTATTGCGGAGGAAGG + anchor), 100 nM annealed; ATP concentration: 500 uM
measured.parameter: switch fluorescence ratio
The response must contain the number and no unit.

TTAGTTGTAA
1.01

Given the sequence CCTGGGGGGC , what is its reported switch fluorescence ratio?
1.09

Given the sequence GGTTTACAGC , what is its reported switch fluorescence ratio?
0.979

###

Test system: ATP;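 further: ATP exposure 15 min at 22 °C before imaging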
Experiment: switch fluorescence ratio, 500 uM ATP over buffer (Cy3 cluster intensity, sum of 5 cycles each) (fold (ratio)); higher = stronger signal-on switching upon ATP binding; sequences stand for … in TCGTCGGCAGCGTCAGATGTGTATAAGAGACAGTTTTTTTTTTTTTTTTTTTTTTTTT…TC
Details: aptamer strand: ATP DNA aptamer (quencher-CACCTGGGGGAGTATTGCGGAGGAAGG + anchor), 100 nM annealed; ATP concentration: 500 uM
measured.parameter: switch fluorescence ratio
The response must contain the number and no unit.

See these solved cases before continuing.
ACGATTAGTT
0.971
TGCTATTATG
0.988
TTCGTTTTAG
0.996

Given the sequence TCGTGTTTCA , what is its reported switch fluorescence ratio?
1

Given the sequence GGGGTCCTAG , what is its reported switch fluorescence ratio?
0.996

Given the sequence AGAGTGGCAG , what is its reported switch fluorescence ratio?
1.01

Given the sequence GCCAAAACCT , what is its reported switch fluorescence ratio?
2

Given the sequence TCGGGGTTCA , what is its reported switch fluorescence ratio?
1.04

Given the sequence GGACTAGGGA , what is its reported switch fluorescence ratio?
1.01

Given the sequence CGCGGGGTGT , what is its reported switch fluorescence ratio?
1.05

###

Tested on: ATP;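 further: ATP exposure 15 min at 22 °C before imaging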
Assay: switch fluorescence ratio, 500 uM ATP over buffer (Cy3 cluster intensity, sum of 5 cycles each) (fold (ratio)); higher = stronger signal-on switching upon ATP binding; sequences stand for … in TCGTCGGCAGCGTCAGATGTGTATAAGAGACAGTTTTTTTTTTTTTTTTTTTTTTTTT…TC
Conditions: aptamer strand: ATP DNA aptamer (quencher-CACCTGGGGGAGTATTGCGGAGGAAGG + anchor), 100 nM annealed; ATP concentration: 500 uM
Items are presented alongside their recorded switch fluorescence ratio.
The response must contain the number and no unit.

ATATGAATGA
1.01
TAAAATATTT
1.05
GGCTGAGTTA
1.02
GGGTTCACGG
1
GCTCGACCCT
1.07

Let us move to another entry and its switch fluorescence ratio.
Given the sequence AGGGGCTTTA , what is its reported switch fluorescence ratio?
1.14

###

Tested on: ATP;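 further: ATP exposure 15 min at 22 °C before imaging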
Test: switch fluorescence ratio, 500 uM ATP over buffer (Cy3 cluster intensity, sum of 5 cycles each) (fold (ratio)); higher = stronger signal-on switching upon ATP binding; sequences stand for … in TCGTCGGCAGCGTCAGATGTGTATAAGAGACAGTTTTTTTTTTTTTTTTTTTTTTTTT…TC
Details: aptamer strand: ATP DNA aptamer (quencher-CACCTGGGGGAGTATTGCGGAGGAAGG + anchor), 100 nM annealed; ATP concentration: 500 uM
Items are presented alongside their recorded switch fluorescence ratio.
The response must contain the number and no unit.

See these solved cases before continuing.
AAATTAGGTC
0.95
CTCAATGACT
1.02
AATGTTTTTG
1.02

What value of switch fluorescence ratio on ATP does GCTGTAGGAT have?
0.984

The measured values listed here are drawn from the supplement of paper PMC10126150.
